B1: CPEB3 Ribozyme (parent)
chain: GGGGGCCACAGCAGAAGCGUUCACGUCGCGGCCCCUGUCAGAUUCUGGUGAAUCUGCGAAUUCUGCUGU

- Variants of: B1
- ASSAY_PROTOCOL: self-cleavage, relative activity (ratio to wild type); higher = more cleavage; co-transcriptional
self-cleavage values by entry
QUANTITY: self-cleavage

> print(dat)
    variant.name  observed
 1      C7A G47A     0.612
 2     G14C C24G     0.131
 3     G56C A60C     0.295
 4     A13C U53G      0.63
 5     A52U U69A      1.03
 6      C7A A40G     0.416
 7     A60C C63A     0.405
 8     A51U U55G     0.662
 9      G2C U53C    0.0834
10      G3U C34G     0.643
11     U61A G68A      1.05
12     C35U A60G     0.522
13     U46A G65A     0.954
14      C9G C35A     0.267
15     U61G C66U     0.659
16     G30A G37A      0.23
17     G48A G56U     0.972
18      G4C C34U     0.383
19     G31A A60U     0.322
20     C24A A59C      0.32
21      G4C G31A     0.179
22     A10U G11A     0.873
23     A10G U61A       0.6
24     C32A A51C     0.391
25     U62A U67G     0.918
26     G25U G56A     0.171
27      C6A G56A     0.423
28     C12U U69G      1.05
29     C24U U26G     0.448
30      C9G G47A      1.05
31     G19A G48C     0.188
32     G30A U55A     0.638
